Recorded values, source the supplement of paper PMC8728848.

- Subject Of Test: Man(a1-2)Man(a1-3)Man
- Assay Info: glycan array binding signal (z-score within array); higher = stronger binding
- Test Parameters: glycan notation: IUPAC condensed, linker removed
This is one part of a sample in which the strongest signals are shown more often than they occur.
Listed here are binders together with their documented glycan array binding signal (z-score).
Metric Name: glycan array binding signal (z-score)

- Binder: "ECA (Erythrina cristagalli), P83410 (protein) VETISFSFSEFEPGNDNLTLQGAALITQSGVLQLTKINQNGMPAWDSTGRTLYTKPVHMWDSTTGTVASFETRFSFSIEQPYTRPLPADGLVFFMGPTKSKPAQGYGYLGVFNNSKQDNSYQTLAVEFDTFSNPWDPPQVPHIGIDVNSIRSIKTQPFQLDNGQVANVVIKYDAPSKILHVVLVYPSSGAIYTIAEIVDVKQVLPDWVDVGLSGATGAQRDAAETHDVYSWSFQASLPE"
  Measurement: -0.285
- Binder: "HPAIIITrx (Helix pomatia), Q1KM18 (protein) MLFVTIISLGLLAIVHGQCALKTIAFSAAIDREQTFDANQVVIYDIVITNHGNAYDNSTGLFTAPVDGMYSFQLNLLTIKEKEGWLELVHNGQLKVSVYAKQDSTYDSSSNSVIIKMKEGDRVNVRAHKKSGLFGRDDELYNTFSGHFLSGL"
  Measurement: -0.321
- Binder: "FBG3 (Homo sapiens), Q9H4M3 (protein) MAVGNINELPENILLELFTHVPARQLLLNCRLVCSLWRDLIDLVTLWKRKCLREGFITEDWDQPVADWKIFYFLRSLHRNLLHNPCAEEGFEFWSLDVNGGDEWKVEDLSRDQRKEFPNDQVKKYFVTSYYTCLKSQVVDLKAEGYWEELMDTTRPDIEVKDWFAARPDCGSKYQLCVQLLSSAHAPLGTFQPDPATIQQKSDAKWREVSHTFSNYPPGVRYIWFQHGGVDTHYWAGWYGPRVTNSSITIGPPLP"
  Measurement: -0.171
